System: UACC-257 melanoma
Test: NCI tumour cell line growth inhibition, 48 h; in the data active = GI50 below about 0.43 µM; inactive = the rest
Possible outcomes: active, inactive

>  <compound>
CS(=O)(=O)CCNCc1coc(-c2ccc3ncnc(Nc4ccc(OCc5ccccc5)cc4)c3c2)c1

>  <tested-system>
UACC-257 melanoma

>  <assigned-class>
inactive

$$$$
>  <compound>
CCOc1cccc(/C=N/NC(=O)c2cccc(Nc3ccnc(C(F)(F)F)c3)c2)c1O

>  <tested-system>
UACC-257 melanoma

>  <assigned-class>
inactive

$$$$
>  <compound>
COc1cccc2c1C(=N)c1c(O)c3c(c(O)c1C2=O)C[C@@](O)(C(C)=O)C[C@@H]3O[C@H]1C[C@H](N)[C@H](O)[C@H](C)O1

>  <tested-system>
UACC-257 melanoma

>  <assigned-class>
inactive

$$$$
>  <compound>
O=C(/C=C/c1ccccc1)Nc1ncc(Cc2ccccc2Cl)s1

>  <tested-system>
UACC-257 melanoma

>  <assigned-class>
inactive

$$$$
>  <compound>
NC(CSC(c1ccccc1)(c1ccccc1)c1ccccc1)C(=O)NCC(=O)O (stereo not drawn)

>  <tested-system>
UACC-257 melanoma

>  <assigned-class>
inactive

$$$$
>  <compound>
O=C(O)c1ccc(CN2CCC(CN[C@@H]3C[C@H]3c3ccccc3)CC2)cc1

>  <tested-system>
UACC-257 melanoma

>  <assigned-class>
inactive

$$$$
>  <compound>
[N-]=[N+]=NCCCn1c2c(c3ccc([N+](=O)[O-])cc3c1=O)C(=O)c1ccccc1-2

>  <tested-system>
UACC-257 melanoma

>  <assigned-class>
active

$$$$
>  <compound>
CCOc1cc(C(C)(C)C)ccc1C1=N[C@H](c2ccc(Cl)cc2)[C@H](c2ccc(Cl)cc2)N1C(=O)N1CCN(CC#Cc2cccc3c2CN([C@@H]2CCC(=O)NC2=O)C3=O)CC1

>  <tested-system>
UACC-257 melanoma

>  <assigned-class>
inactive

$$$$

* * *

Tested on: OVCAR-5 ovarian
Test: NCI tumour cell line growth inhibition, 48 h

>  <molecule>
CN(C)/C=C/C(=CC=[N+](C)C)/C=C/N(C)C

>  <TGI>
> 100 µM

$$$$
>  <molecule>
Cc1ccc(-n2[nH]nc(C(N)=O)c2=O)cc1

>  <TGI>
> 100 µM

$$$$
>  <molecule>
CC1(C)N=C(N)N=C(N)N1c1ccc(CCC(=O)Nc2ccc(S(=O)(=O)F)cc2)c(Cl)c1

>  <TGI>
> 100 µM

$$$$
>  <molecule>
Cc1ccc(C(=O)O)c(/C=C2\Cc3ccc(C)cc3C2=O)c1

>  <TGI>
> 100 µM

$$$$
>  <molecule>
Cc1nnc(-c2ccc(C)c(-c3ccc(C(=O)Nc4cccc(C#N)c4)cc3)c2)o1

>  <TGI>
> 25 µM

$$$$
>  <molecule>
COc1cc(Nc2ncccc2C(=O)Nc2nc3ccc(F)cc3s2)cc(OC)c1OC

>  <TGI>
> 100 µM

$$$$
>  <molecule>
O=[N+]([O-])c1ccc(CSc2nncc3[nH]cnc23)cc1

>  <TGI>
> 100 µM

$$$$
>  <molecule>
CN(C)CCC(=O)N1C/C(=C\c2ccc(Cl)c(Cl)c2)C(=O)/C(=C/c2ccc(Cl)c(Cl)c2)C1

>  <TGI>
1.69 µM

$$$$
>  <molecule>
COc1ccc(C=O)cc1O[Si](C)(C)C(C)(C)C

>  <TGI>
> 100 µM

$$$$
>  <molecule>
O=C(O)c1ccc(CN2CCC(CN[C@@H]3C[C@H]3c3ccccc3)CC2)cc1

>  <TGI>
> 100 µM

$$$$
>  <molecule>
CCCCCCCCn1ccc2cc(NC(=O)Cn3cc(CN4CCCCCC4)nn3)ccc21

>  <TGI>
3.86 µM

$$$$
>  <molecule>
Cc1ccc(C2=C(c3ccc(C)cc3)C3(c4ccc(C)cc4)C4C(=O)OC(=O)C4C2(c2ccc(C)cc2)S3=O)cc1 (stereo unspecified)

>  <TGI>
> 100 µM

$$$$
>  <molecule>
CCCCCCNCCc1cnc[nH]1

>  <TGI>
> 100 µM

$$$$
>  <molecule>
Cc1ccc(S(=O)(=O)N=Nc2c(O)[nH]c3cc(O)c(C(=O)O)cc23)cc1

>  <TGI>
> 100 µM

$$$$
>  <molecule>
O=c1[nH]c2ccccc2cc1-c1nc2ccc(Cl)cc2[nH]1

>  <TGI>
> 100 µM

$$$$
>  <molecule>
CC(C)NC(=O)OCc1c2c(n(C)c1COC(=O)NC(C)C)-c1cc(Cl)c(Cl)cc1CC2

>  <TGI>
> 100 µM

$$$$

* * *

Consider the following compounds and their measured TGI readings.
Test system: OVCAR-3 ovarian
Experiment: NCI tumour cell line growth inhibition, 48 h

>  <compound>
CC1C2CC(C(S(=O)(=O)O)C2=O)C1(C)C (centres undefined)

>  <tested-system>
OVCAR-3 ovarian

>  <TGI>
> 100 µM

$$$$
>  <compound>
O=NNc1ccc2ccccc2n1

>  <tested-system>
OVCAR-3 ovarian

>  <TGI>
> 100 µM

$$$$
>  <compound>
COc1cc(NS(=O)(=O)c2ccc(C)cc2)c2nccnc2c1

>  <tested-system>
OVCAR-3 ovarian

>  <TGI>
> 100 µM

$$$$
>  <compound>
OC(CNc1ccccn1)c1ccccc1 (centres undefined)

>  <tested-system>
OVCAR-3 ovarian

>  <TGI>
> 100 µM

$$$$
>  <compound>
O=S(=O)(C1=CC(S(=O)(=O)c2ccccc2)CN(Cc2ccccc2)C1c1cccc2ccccc12)c1ccccc1 (centres undefined)

>  <tested-system>
OVCAR-3 ovarian

>  <TGI>
> 69 µM

$$$$
>  <compound>
CN(C)CCNC(=O)c1cccc2c(=O)c3ccccc3oc12

>  <tested-system>
OVCAR-3 ovarian

>  <TGI>
> 100 µM

$$$$
>  <compound>
CN(/N=C/c1ccc(C(=O)O)cc1)C1=NCCCCN1

>  <tested-system>
OVCAR-3 ovarian

>  <TGI>
> 100 µM

$$$$
>  <compound>
CSc1c(C(=O)Nc2ccccc2)c(N)n(N)c(=O)c1C#N

>  <tested-system>
OVCAR-3 ovarian

>  <TGI>
> 100 µM

$$$$
>  <compound>
CS(=O)(=O)Nc1ccc2ccccc2c1-c1c(NS(C)(=O)=O)ccc2ccccc12

>  <tested-system>
OVCAR-3 ovarian

>  <TGI>
> 25 µM

$$$$

* * *

Test system: A549 NSCLC
Experiment: NCI tumour cell line growth inhibition, 48 h
Consider the following compounds and their measured TGI readings.
value-type: TGI

>  <compound>
NC(CSC(c1ccccc1)(c1ccccc1)c1ccccc1)C(=O)NCC(=O)O (stereo not given)

>  <measurement>
> 100 µM

$$$$
>  <compound>
C[C@]12CC=CC(=O)[C@@]1(C)CCC(=O)C2

>  <measurement>
> 100 µM

$$$$
>  <compound>
C=CCCON(C(=O)OC(C)(C)C)c1ccccc1

>  <measurement>
> 100 µM

$$$$
>  <compound>
Cc1nnc(-c2ccc(C)c(-c3ccc(C(=O)Nc4cccc(C#N)c4)cc3)c2)o1

>  <measurement>
> 25 µM

$$$$
>  <compound>
CS(=O)(=O)Nc1ccc2ccccc2c1-c1c(NS(C)(=O)=O)ccc2ccccc12

>  <measurement>
> 25 µM

$$$$
>  <compound>
C#CC1(O)C(COP(=O)(O)OCC(COP(=O)(O)OCC2OC(n3cc(F)c(=O)[nH]c3=O)CC2O)OCCCCCCCCCCCCCCCCCC)OC(n2ccc(N)nc2=O)C1O (stereo not given)

>  <measurement>
> 68.3 µM

$$$$
>  <compound>
Cc1cc(Cl)ccc1OCC(=O)Nc1nc2c(Cl)cccc2s1

>  <measurement>
42 µM

$$$$
>  <compound>
CCC[CH2][Sn]([CH2]CCC)([O]C(=O)CN)[O]C(=O)CN

>  <measurement>
> 100 µM

$$$$
>  <compound>
COC(=O)c1ccc2[nH]c(O)c(C(=Nc3ccc(N(C)C(=O)CN4CCN(C)CC4)cc3)c3ccc4c(c3)OCO4)c2c1

>  <measurement>
4.12 µM

$$$$
>  <compound>
CN(C)/C=C/C(=CC=[N+](C)C)/C=C/N(C)C

>  <measurement>
> 100 µM

$$$$
>  <compound>
C=C(C)[C@@H]1CC[C@]2(COCCCN)CC[C@]3(C)[C@H](CC[C@@H]4[C@@](C)(CCCNCCCN)[C@H](C(=C)C)CC[C@]43C)[C@@H]12

>  <measurement>
3.63 µM

$$$$
>  <compound>
ONC1=Nc2cc(Cl)ccc2C(=S)N2CSCC12 (stereo not given)

>  <measurement>
> 100 µM

$$$$
>  <compound>
C=CC[C@]1(/C=N/O)CN(S(=O)(=O)CC[Si](C)(C)C)C[C@H]2CC=CC[C@H]21

>  <measurement>
30.7 µM

$$$$
>  <compound>
CCN1C(=O)/C(=C/c2c(Cl)[nH]c3cc(C)c(OC)cc23)c2ccccc21

>  <measurement>
> 100 µM

$$$$
>  <compound>
O=C1C=C(Nc2ccccc2C(=O)CC(=O)C(=O)Nc2cccc([N+](=O)[O-])c2)c2ccccc2C1=O

>  <measurement>
> 100 µM

$$$$
